- Tested on: OVCAR-4 ovarian
- test.protocol: NCI tumour cell line growth inhibition, 48 h
readout.type: TGI

>>> observed_measurement("CC12OC(CC(O)C1O)n1c3ccccc3c3c4c(c5c6ccccc6n2c5c31)C(=O)N(CCN1CCCC1)C4=O (stereo unspecified)")
"12.3 µM"

QUERY: Which TGI value is on record for CCOc1ccc(Nc2nc(C)c(C(=O)/C=C/c3ccc(Cl)cc3Cl)s2)cc1 ?
RESULT: 28.7 µM

QUERY: Queued: COc1ccc(N[C@H]([C@@H](c2ccccc2)S(=O)c2ccc(C)cc2)C(F)(F)F)cc1 (stereo partly specified)
RESULT: 79.5 µM

QUERY: Now the molecule NC(=Nc1ccc(S(=O)(=O)Nc2cnc3ccccc3n2)cc1)/N=C(/N)Nc1ccc(Br)cc1
RESULT: > 100 µM

QUERY: Now consider CC(C)(c1cn(Cc2ccccc2)c2ccccc12)c1cn(Cc2ccccc2)c2ccccc12 .
RESULT: > 100 µM

QUERY: Here is the next molecule: CC12CCC(=O)N1c1cnccc1N2 (stereo unspecified)
RESULT: > 100 µM

QUERY: Item: O=C1C(c2ccc([N+](=O)[O-])cc2)=[N+]([O-])c2ccc([N+](=O)[O-])cc21
RESULT: > 100 µM

QUERY: Record: CCCCN(CCCC)CC(O)c1cc(-c2ccc(Cl)c(Cl)c2)nc2c(Cl)cc(Cl)cc12 (stereo unspecified)
RESULT: > 100 µM

QUERY: Now consider CN(C)c1ccc(C2SCC(=O)N2c2nc3cc4sc(N5C(=O)CSC5c5ccc(N(C)C)cc5)nc4cc3s2)cc1 (stereo unspecified) .
RESULT: > 100 µM

QUERY: Can you handle CN(C)CCCNC(=O)c1c(-c2cccnc2)cnc2ccccc12 next?
RESULT: > 100 µM

QUERY: Also COc1ccc([As]=[As]c2ccc(OC)c(NCS(=O)(=O)O)c2)cc1NCS(=O)(=O)O (stereo unspecified) ?
RESULT: 2.6 µM

* * *

Parameter TGI: see the listing below.
- Tested on: MCF7 breast
- test.protocol: NCI tumour cell line growth inhibition, 48 h

>>> observed_measurement("CN(C)C(=O)N(CCCl)N=O")
"> 100 µM"
>>> observed_measurement("O=C1c2ccccc2-c2c1c1ccc([N+](=O)[O-])cc1c(=O)n2CCCN1CCOCC1")
"> 100 µM"
>>> observed_measurement("COc1ccc2c(NCCCCCCCCNc3c4ccccc4nc4cc(OC)ccc34)c3ccccc3nc2c1")
"0.192 µM"
>>> observed_measurement("O=C(O)CCc1ccc(-c2ccccc2)[nH]1")
"> 100 µM"
>>> observed_measurement("OCCN(CCO)CCn1cnc2c(NCc3ccccc3)ncnc21")
"> 100 µM"

QUERY: Fill blank: measured TGI of the compound O=C(Nn1cc(F)c(=O)[nH]c1=O)C12CC3CC(CC(C3)C1)C2 is ____.
RESULT: > 100 µM

QUERY: Another compound: CN(C)C(=S)/N=C1\SC(=Nc2ccccc2)C(=Nc2ccccc2)N1c1ccc([N+](=O)[O-])cc1
RESULT: > 100 µM

QUERY: Follow-up entry: [N-]=[N+]=NC1=C(C(=O)c2ccccc2)C(=O)c2cccc3cccc1c23
RESULT: > 100 µM

QUERY: For COc1ccc(OC)c(C(=O)c2cccc(C(=O)c3cc(OC)ccc3OC)n2)c1 then?
RESULT: 67.5 µM

QUERY: Same again, this time with CC(=O)N/N=C1/NN(C(C)=O)C2(S1)C(=O)Nc1ccc(C)cc12 (stereo unspecified)
RESULT: > 100 µM

QUERY: Try CC(=O)Nc1nc2ncc(C=O)nc2c(=O)[nH]1 next.
RESULT: > 100 µM
